MEASURED TARGET: BRD3 BD2 L/V (Homo sapiens, UniProt Q15059, L345V)
Sequence (Q15059 306-416 L345V limits assumed): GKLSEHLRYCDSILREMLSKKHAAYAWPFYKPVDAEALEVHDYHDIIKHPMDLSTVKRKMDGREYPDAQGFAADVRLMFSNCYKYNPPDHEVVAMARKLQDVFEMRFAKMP
TEST PROTOCOL: ITC
Type: binding
APPLIED CONDITIONS: ITC, 30°C; read-out: Kd BRD3 BD2 L/V
For each entry below, report its Kd value.
Field: numeric (nM). Do not append units.

Query block: So what does the record say about Kd for CCNC(=O)[C@H](CC)[C@@H]1N=C(c2ccc(Cl)cc2)c2cc(OC)ccc2-n2c(C)nnc21 (relative stereo) [Compound 17] ?
Result block: 610

Query block: Kd for CCNC(=O)[C@H](C)[C@@H]1N=C(c2ccc(Cl)cc2)c2cc(OC)ccc2-n2c(C)nnc21 (relative stereo) [Compound 16] ?
Result block: 130

====

Record form. Attribute: pIC50. Fill in for each entry.
MEASURED TARGET: BRD3 BD1 WT (Homo sapiens, UniProt Q15059)
Sequence (Q15059 24-144): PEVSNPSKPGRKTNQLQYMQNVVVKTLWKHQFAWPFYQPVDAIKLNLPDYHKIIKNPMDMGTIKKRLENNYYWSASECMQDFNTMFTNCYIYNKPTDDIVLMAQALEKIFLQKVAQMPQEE
TEST PROTOCOL: competitive AlphaLISA
Assay type: binding
Expect pIC50 as a plain number equal to -log10 of the molar concentration.

Query block: # get_value(readout= pIC50, system= BRD3 BD1 WT (Homo sapiens, UniProt Q15059)) for CCC[C@@H](C(=O)OC)[C@@H]1N=C(c2ccc(Cl)cc2)c2cc(OC)ccc2-n2c(C)nnc21 (relative stereo)
Result block: 4.70

Query block: API: value(readout= pIC50, system= BRD3 BD1 WT (Homo sapiens, UniProt Q15059), query= CC[C@@H](C(=O)OC)[C@@H]1N=C(c2ccc(Cl)cc2)c2ccc(OC)cc2-n2c(C)nnc21 (racemic) )
Result block: 5.60

Query block: Find pIC50 (BRD3 BD1 WT (Homo sapiens, UniProt Q15059)) for the entry CCN(CC)C(=O)[C@H](C)[C@@H]1N=C(c2ccc(Cl)cc2)c2cc(OC)ccc2-n2c(C)nnc21 (relative stereo)
Result block: 5.30

Query block: Query for BRD3 BD1 WT (Homo sapiens, UniProt Q15059): what pIC50 does the record show for CC[C@@H](C(=O)OC(C)(C)C)[C@@H]1N=C(c2ccc(Cl)cc2)c2cc(OC)ccc2-n2c(C)nnc21 ?
Result block: 5.60

Query block: Give BRD3 BD1 WT (Homo sapiens, UniProt Q15059) pIC50 for C=CC[C@@H](C(=O)OC)[C@@H]1N=C(c2ccc(Cl)cc2)c2ccc(OC)cc2-n2c(C)nnc21 (relative stereo)
Result block: 4.50

Query block: Lab request: please report pIC50 under test system BRD3 BD1 WT (Homo sapiens, UniProt Q15059) for C=CC[C@@H](C(=O)OC(C)(C)C)[C@@H]1N=C(c2ccc(Cl)cc2)c2cc(OC)ccc2-n2c(C)nnc21
Result block: 5.40

Query block: // map CC[C@@H](C(=O)OC)[C@@H]1N=C(c2ccc(Cl)cc2)c2cc(OC)ccc2-n2c(C)nnc21 (relative stereo) to recorded pIC50 (system: BRD3 BD1 WT (Homo sapiens, UniProt Q15059))
Result block: 5.20

Query block: Could you share what pIC50 was measured for C=CC[C@@H](C(=O)OC)[C@@H]1N=C(c2ccc(Cl)cc2)c2cc(OC)ccc2-n2c(C)nnc21 (racemic) , tested on BRD3 BD1 WT (Homo sapiens, UniProt Q15059)?
Result block: 5.40

Query block: # value lookup — system BRD3 BD1 WT (Homo sapiens, UniProt Q15059), readout pIC50, item COC(=O)CC1N=C(c2ccc(Cl)cc2)c2cc(OC)ccc2-n2c(C)nnc21 (stereo not shown)
Result block: 6.90

Query block: Lab note: need pIC50 for CC[C@@H](C(=O)N(CC)CC)[C@@H]1N=C(c2ccc(Cl)cc2)c2cc(OC)ccc2-n2c(C)nnc21 (relative stereo) on BRD3 BD1 WT (Homo sapiens, UniProt Q15059), anyone have it?
Result block: 4.70

Query block: Give BRD3 BD1 WT (Homo sapiens, UniProt Q15059) pIC50 for COC(=O)[C@H](C)[C@@H]1N=C(c2ccc(Cl)cc2)c2cc(OC)ccc2-n2c(C)nnc21 (relative stereo)
Result block: 6.60

Query block: What measured pIC50 is associated with CCNC(=O)[C@H](C)[C@@H]1N=C(c2ccc(Cl)cc2)c2ccc(OC)cc2-n2c(C)nnc21 (relative stereo) on BRD3 BD1 WT (Homo sapiens, UniProt Q15059)?
Result block: 5.30

Query block: Please provide the recorded pIC50 for CCNC(=O)[C@H](CC)[C@@H]1N=C(c2ccc(Cl)cc2)c2ccc(OC)cc2-n2c(C)nnc21 (relative stereo) , tested on BRD3 BD1 WT (Homo sapiens, UniProt Q15059).
Result block: 4.20

====

Please respond with reported ΔH BRD4 BD1 L/V for every item in the list.
MEASURED TARGET: BRD4 BD1 L/V (Homo sapiens, UniProt O60885, L94V)
TEST PROTOCOL: ITC
Assay type: binding
APPLIED CONDITIONS: ITC; total compound concentration
Write the answer as a number in kcal/mol, unit excluded.

Query block: Field request: ΔH BRD4 BD1 L/V | item: CC[C@@H](C(=O)OC)[C@@H]1N=C(c2ccc(Cl)cc2)c2ccc(OC)cc2-n2c(C)nnc21 (relative stereo) [(2R,3S)-8]
Result block: -6.5

Query block: Fill in the blank: the reported ΔH BRD4 BD1 L/V of CC[C@@H](C(=O)OC)[C@@H]1N=C(c2ccc(Cl)cc2)c2ccc(OC)cc2-n2c(C)nnc21 (racemic) [Compound 8] is ____.
Result block: -3.5

Query block: Look up ΔH BRD4 BD1 L/V: COC(=O)[C@H](C)[C@@H]1N=C(c2ccc(Cl)cc2)c2ccc(OC)cc2-n2c(C)nnc21 [(2R,3S)-7]
Result block: -7.9

Query block: Give the measured ΔH BRD4 BD1 L/V of COC(=O)[C@H](C)[C@@H]1N=C(c2ccc(Cl)cc2)c2ccc(OC)cc2-n2c(C)nnc21 (racemic) [Compound 7] .
Result block: -4.2

====

MEASURED TARGET: BRD2: LV/LV (Homo sapiens, UniProt P25440, L110V/L383V)
Sequence (P25440 73-455 L110V/L383V limits assumed): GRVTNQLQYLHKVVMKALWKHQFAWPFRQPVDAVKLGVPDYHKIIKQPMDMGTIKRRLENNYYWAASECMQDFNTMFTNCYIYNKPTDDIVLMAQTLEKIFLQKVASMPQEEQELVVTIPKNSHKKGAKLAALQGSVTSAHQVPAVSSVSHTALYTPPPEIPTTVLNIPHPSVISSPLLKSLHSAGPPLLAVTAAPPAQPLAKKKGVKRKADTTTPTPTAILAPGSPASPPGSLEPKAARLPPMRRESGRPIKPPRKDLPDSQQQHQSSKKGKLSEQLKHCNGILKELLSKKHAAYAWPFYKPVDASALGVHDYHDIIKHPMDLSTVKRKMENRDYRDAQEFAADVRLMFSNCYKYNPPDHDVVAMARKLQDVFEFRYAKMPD
TEST PROTOCOL: ITC, BRD2 tandem construct
RECORDED ENDPOINT: Kd (nM)
Field format: number, assumed nM, no unit text.

Query block: Need Kd, item CC[C@@H](C(=O)OC)[C@@H]1N=C(c2ccc(Cl)cc2)c2cc(OC)ccc2-n2c(C)nnc21 (relative stereo)
Result block: 140

====

Provide the reported pKd of each item.
MEASURED TARGET: BRD3 BD1 L/V (Homo sapiens, UniProt Q15059, L70V)
Sequence (Q15059 24-144 L70V limits assumed): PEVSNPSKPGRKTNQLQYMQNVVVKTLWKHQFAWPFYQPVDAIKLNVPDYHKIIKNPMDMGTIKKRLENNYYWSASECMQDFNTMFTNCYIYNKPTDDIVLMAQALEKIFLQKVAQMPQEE
TEST PROTOCOL: ITC
Assay type: binding
APPLIED CONDITIONS: ITC, 30°C; read-out: Kd BRD3 BD1 L/V
Give only the number. pKd is defined as minus log10 of concentration in molar units.

Query block: For the compound CCNC(=O)[C@H](CC)[C@@H]1N=C(c2ccc(Cl)cc2)c2cc(OC)ccc2-n2c(C)nnc21 (relative stereo) , what pKd is on record?
Result block: 6.13

Query block: Given CCNC(=O)[C@H](C)[C@@H]1N=C(c2ccc(Cl)cc2)c2cc(OC)ccc2-n2c(C)nnc21 (relative stereo) , state its recorded pKd.
Result block: 7.22

====

Assignment: determine reported ΔH BRD3 BD2 L/V for the given molecules.
MEASURED TARGET: BRD3 BD2 L/V (Homo sapiens, UniProt Q15059, L345V)
TEST PROTOCOL: ITC
Type: binding
APPLIED CONDITIONS: ITC
Give the value; after it, write the unit.

Query block: Fill in the blank: the reported ΔH BRD3 BD2 L/V of C=CC[C@@H](C(=O)OC)[C@@H]1N=C(c2ccc(Cl)cc2)c2cc(OC)ccc2-n2c(C)nnc21 (racemic) is ____.
Result block: -8.5 kcal/mol

Query block: Entry under review: CCNC(=O)[C@H](C)[C@@H]1N=C(c2ccc(Cl)cc2)c2ccc(OC)cc2-n2c(C)nnc21 (relative stereo) . Reported ΔH BRD3 BD2 L/V?
Result block: -6.7 kcal/mol

Query block: Fill in: ΔH BRD3 BD2 L/V of CCNC(=O)[C@H](C)[C@@H]1N=C(c2ccc(Cl)cc2)c2cc(OC)ccc2-n2c(C)nnc21 (relative stereo) is ___
Result block: -12.9 kcal/mol

Query block: # input molecule: CCNC(=O)[C@H](CC)[C@@H]1N=C(c2ccc(Cl)cc2)c2cc(OC)ccc2-n2c(C)nnc21 (relative stereo) ; wanted: its ΔH BRD3 BD2 L/V
Result block: -4.7 kcal/mol

Query block: # get_value(readout='ΔH BRD3 BD2 L/V', item= CC[C@@H](C(=O)OC)[C@@H]1N=C(c2ccc(Cl)cc2)c2cc(OC)ccc2-n2c(C)nnc21 (relative stereo) )
Result block: -9.5 kcal/mol

====

TEST PROTOCOL: WT Cell Cytotoxicity (CellTiter-Glo)
APPLIED CONDITIONS: human, HL-60 cells (BET-dependent AML cell line)
RECORDED ENDPOINT: CC50 at 48 h

Query block: // lookup CC50 at 48 h for COC(=O)[C@H](C)[C@@H]1N=C(c2ccc(Cl)cc2)c2ccc(OC)cc2-n2c(C)nnc21 [(2R,3S)-7]
Result block: > 5.01 µM
